MEASUREMENT_NOTES: Metabolism rate, pmol/min/mg at 1 μM, rat male
Format: in vitro ADME
CONDITION_CONTEXT: 1 μM compound
The following molecules are listed with their measured Rat male pmol/min/mg 1 μM values.

[
  {
    "MOLECULE": "Cc1cc2c(cc1Cc1ccc(C(=O)NC[C@H]3CC[C@H](C(N)=O)CC3)o1)C(C)(C)CCC2(C)C",
    "UNITS_TEXT": "pmol/min/mg",
    "Rat male pmol/min/mg 1 μM": 2995
  },
  {
    "MOLECULE": "Cc1cc2c(cc1Cc1ccc(C(=O)NCc3cccs3)o1)C(C)(C)CCC2(C)C",
    "UNITS_TEXT": "pmol/min/mg",
    "Rat male pmol/min/mg 1 μM": 1759
  },
  {
    "MOLECULE": "COc1cccc(OC)c1NC(=O)c1ccc(Cc2cc(C(C)(C)C)ccc2C)o1",
    "UNITS_TEXT": "pmol/min/mg",
    "Rat male pmol/min/mg 1 μM": 1794
  },
  {
    "MOLECULE": "COc1cc2c(cc1Cc1ccc(C(=O)NCc3cccc(CNc4ccnc(NC[C@H]5CCCO5)n4)c3)o1)C(C)(C)CCC2(C)C (stereo in doubt)",
    "UNITS_TEXT": "pmol/min/mg",
    "Rat male pmol/min/mg 1 μM": 3387
  },
  {
    "MOLECULE": "COc1ccc(CNC(=O)c2ccc(Cc3cc4c(cc3C)C(C)(C)CCC4(C)C)o2)c(OC)c1",
    "UNITS_TEXT": "pmol/min/mg",
    "Rat male pmol/min/mg 1 μM": 3412
  },
  {
    "MOLECULE": "Cc1cc2c(cc1Cc1ccc(C(=O)NCc3cccc(CNc4nccc(NC[C@@H]5CCCO5)n4)c3)o1)C(C)(C)CCC2(C)C",
    "UNITS_TEXT": "pmol/min/mg",
    "Rat male pmol/min/mg 1 μM": 1414
  },
  {
    "MOLECULE": "COc1cc(OC)c(NC(=O)c2ccc(Cc3c(C)ccc4c3OCCC4(C)C)o2)c(OC)c1",
    "UNITS_TEXT": "pmol/min/mg",
    "Rat male pmol/min/mg 1 μM": 575
  },
  {
    "MOLECULE": "Cc1cc2c(cc1Cc1ccc(C(=O)NCc3cccc(CNc4ccnc(NC[C@@H]5CCCO5)n4)c3)o1)C(C)(C)CCC2(C)C [Compound 176]",
    "UNITS_TEXT": "pmol/min/mg",
    "Rat male pmol/min/mg 1 μM": 2341
  },
  {
    "MOLECULE": "COc1ccc(CNC(=O)c2ccc(Cc3cc4c(cc3C)C(C)(C)CCC4(C)C)o2)cc1",
    "UNITS_TEXT": "pmol/min/mg",
    "Rat male pmol/min/mg 1 μM": 1387
  },
  {
    "MOLECULE": "Cc1cccc(CNC(=O)c2ccc(Cc3cc4c(cc3C)C(C)(C)CCC4(C)C)o2)c1",
    "UNITS_TEXT": "pmol/min/mg",
    "Rat male pmol/min/mg 1 μM": 1606
  },
  {
    "MOLECULE": "Cc1cc2c(cc1Cc1ccc(C(=O)NCc3ccccc3Cl)o1)C(C)(C)CCC2(C)C",
    "UNITS_TEXT": "pmol/min/mg",
    "Rat male pmol/min/mg 1 μM": 1877
  },
  {
    "MOLECULE": "Cc1cc2c(cc1Cc1ccc(C(=O)NCc3nc4ccccc4[nH]3)o1)C(C)(C)CCC2(C)C",
    "UNITS_TEXT": "pmol/min/mg",
    "Rat male pmol/min/mg 1 μM": 2869
  }
]

Data credit: patent US7101878B1
